Values from PubChem BioAssay (NCATS)

# System: CP185
# assay.method.text: qHTS profiling for inhibitors of Plasmodium falciparum proliferation (AID 504749); also: nearly all actives have a fitted effect of over 60% in size
# conditions.used: P. falciparum in erythrocytes, SYBR Green DNA, 72 h; series mostly up to 28.7 µM
Results filed as inconclusive are left out. The source made the active and inactive calls. Calls follow the shape of the dose curve; as a rule, active = well fitted inhibition curve with a large enough effect; inconclusive = small, poorly fitted or top-dose-only effect; inactive = flat fitted curve, though single readings scatter.
Form entry, call: pick from active, inactive

compound	group
Nc1ccncc1	inactive
NCCc1cc(O)c(O)cc1O	inactive
CCC1(C2=NCCN2)Cc2ccccc2O1 (centres undefined)	active

**Query** Outcome logged for Clc1cccc(N2CCNCC2)c1 in this assay:
**Result** inactive

**Query** Do the same for C=C(C)[C@H]1Cc2c(ccc3c2O[C@@H]2COc4cc(OC)c(OC)cc4[C@@H]2C3=O)O1 please
**Result** inactive

**Query** Do the same for CCN(CC)CCOC(=O)C(O)(c1ccccc1)c1ccccc1 please
**Result** inactive

**Query** Do the same for C=C1CC[C@@]2(O)[C@H]3Cc4ccc(O)c5c4[C@@]2(CCN3CC2CC2)[C@H]1O5 please
**Result** inactive

**Query** Do the same for Oc1ccccc1-c1ccccc1 please
**Result** inactive

**Query** Do the same for CCCC(C)(COC(N)=O)COC(=O)NC(C)C (centres undefined) please
**Result** inactive

**Query** Do the same for Oc1ccc(Cl)cc1Cc1ccccc1 please
**Result** inactive

**Query** Do the same for Oc1cccc2cccnc12 please
**Result** inactive

**Query** Do the same for CC(=O)Nc1cc([As](=O)(O)O)ccc1O please
**Result** inactive

**Query** Do the same for FC(F)(F)c1cccc(C2=CCN(CCc3ccc4ccccc4c3)CC2)c1 please
**Result** inactive

**Query** Do the same for O=C(NC(O)C(Cl)(Cl)Cl)NC(O)C(Cl)(Cl)Cl (centres undefined) please
**Result** inactive

**Query** Do the same for COc1ccc(C(CN(C)C)C2(O)CCCCC2)cc1 (centres undefined) please
**Result** inactive

**Query** Do the same for CC(C)=CC1C(C(=O)OCc2cccc(Oc3ccccc3)c2)C1(C)C (centres undefined) please
**Result** inactive

**Query** Do the same for O=c1[nH]c2ccccc2n1C1CCN(CCCC(c2ccc(F)cc2)c2ccc(F)cc2)CC1 please
**Result** inactive

**Query** Do the same for CN(C)CCc1ccc(O)cc1 please
**Result** inactive

**Query** Do the same for C#CCOC(C(=O)OCCN(C)C)(c1ccccc1)c1ccccc1 please
**Result** inactive

**Query** Do the same for Cc1ccc(-c2nc3ccc(C)cn3c2CC(=O)N(C)C)cc1 please
**Result** inactive

**Query** Do the same for COc1ccccc1N1CCNCC1 please
**Result** inactive

**Query** Do the same for CCOP(=S)(OCC)Oc1cc(C)nc(C(C)C)n1 please
**Result** inactive

----------
# assay.method.text: qHTS of pediatric cancer cell lines to identify multiple opportunities for drug repurposing: Primary screen for MG 63 (6-TG R) cells (AID 1347105); also: nearly all actives have a fitted effect of over 50% in size
# conditions.used: MG 63 (6-TG R) viability, CellTiter-Glo, 48 h; series mostly up to 46 µM
Inconclusive results are not listed. Calls of active or inactive are those of the source. Calls come from the whole dose curve; as a rule, active = well fitted cell-killing curve with a large enough effect; inconclusive = small, poorly fitted or top-dose-only effect; inactive = no such curve, though single readings can be large or run the other way.
Form entry, call: pick from yes = active, no = inactive

compound	group
N[C@@H]1C[C@H]1c1ccccc1	no

Field: next compound
**Query** Outcome logged for CNC(=O)c1ccc(N2C(=S)N(c3ccc(C#N)c(C(F)(F)F)c3)C(=O)C23CCC3)cc1F in this assay:
**Result** yes

----------
# assay.method.text: Primary qHTS for inhibitors of nuclear receptor binding SET domain protein 2 (NSD2) in an isogenic RCH-ACV NSD2 p.E1099K mutant (9B) (AID 1645876); also: nearly all actives have a fitted effect of over 70% in size
# conditions.used: RCH-ACV (leukaemia line) NSD2 E1099K (9B) viability, CellTiter-Glo, 72 h; series mostly up to 44.9 µM
Results filed as inconclusive are left out. Active and inactive are the calls of the source. Calls follow the shape of the dose curve; as a rule, active = well fitted inhibition curve with a large enough effect; inconclusive = small, poorly fitted or top-dose-only effect; inactive = flat fitted curve, though single readings scatter.
Form entry, call: pick from active, inactive

Completed entries (count: 3):
compound	group
Oc1ccc(Cl)cc1Cc1ccccc1	active
CC[N+]1(C)CCCC(OC(=O)C(O)(c2ccccc2)c2ccccc2)C1 (stereo unspecified)	inactive
CC(CCc1ccccc1)NC(C)C(O)c1ccc(O)cc1 (stereo unspecified)	inactive

Field: next compound
**Query** Outcome logged for O=C1CC[C@@]2(O)[C@H]3Cc4ccc(O)c5c4[C@@]2(CCN3CC2CC2)[C@H]1O5 in this assay:
**Result** inactive

----------
# study.target: Thyrotropin-releasing hormone receptor (Homo sapiens)
# assay.method.text: qHTS for Small Molecule Agonists and Allosteric Enhancers of Human TRH Receptor: Validation Screen for Agonists (AID 493127);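 also: intracellular calcium rise by fluo-8 fluorescence before TRH EC20 addition; 0% is about no effect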
# conditions.used: TRH receptor agonist cell assay; at 2 µM; stronger effect = higher value
value.kind: activation (%)
Report the value in % with no unit label.

Study these solved cases before continuing.
compound	unit.string	activation
CCn1cc(C(=O)O)c(=O)c2ccc(C)nc21	%	1.06
Cc1ccc(S(=O)(=O)N[C@@H](CCCCN)C(=O)CCl)cc1	%	-0.625
Cc1ncc(CNC(=O)N(CCCl)N=O)c(N)n1	%	1.5

**Query** Requested field: activation. Item: c1ccc2c(c1)OCC(C1=NCCN1)O2 (stereo not drawn)
**Result** 1.38

**Query** Do the same for Nc1ccncc1 please
**Result** 1.19

**Query** Do the same for NCC(CC(=O)O)c1ccc(Cl)cc1 (stereo not drawn) please
**Result** 0.125

**Query** Do the same for CC(=O)[C@H]1CC[C@H]2[C@@H]3CC[C@H]4C[C@H](O)CC[C@]4(C)[C@H]3C(=O)C[C@]12C please
**Result** 1.5

**Query** Do the same for Cc1cccc(C)c1NC1=NCCCS1 please
**Result** 0.688

**Query** Do the same for COc1ccccc1N1CCNCC1 please
**Result** -7.69

**Query** Do the same for CCCN1CCC[C@@H]2Cc3nc(N)ncc3C[C@H]21 please
**Result** 0.562

**Query** Do the same for CCCC(C)(COC(N)=O)COC(=O)NC(C)C (stereo not drawn) please
**Result** -0.188

**Query** Do the same for CNCC(O)c1ccc(O)cc1 (stereo not drawn) please
**Result** 1.12

**Query** Do the same for CCC1(C2=NCCN2)Cc2ccccc2O1 (stereo not drawn) please
**Result** 0.812

**Query** Do the same for NCC1(CC(=O)O)CCCCC1 please
**Result** 1.12

**Query** Do the same for N#CC(C#N)=Cc1ccc(O)c(O)c1 please
**Result** 1.19

**Query** Do the same for Fc1ccc(C(OCCN2CCN(CCCc3ccccc3)CC2)c2ccc(F)cc2)cc1 please
**Result** -5.62

**Query** Do the same for NCC(O)c1ccc(O)cc1 (stereo not drawn) please
**Result** 0.812

**Query** Do the same for C=C(C)[C@H]1Cc2c(ccc3c2O[C@@H]2COc4cc(OC)c(OC)cc4[C@@H]2C3=O)O1 please
**Result** 1.25

----------
# System: PAD
# assay.method.text: qHTS profiling for inhibitors of Plasmodium falciparum proliferation (AID 504749); also: nearly all actives have a fitted effect of over 60% in size
# conditions.used: P. falciparum in erythrocytes, SYBR Green DNA, 72 h; series mostly up to 28.7 µM
# Method: NIH National Institute of Allergy and Infectious Diseases [NIAID] NIH Chemical Genomics Center [NCGC] […] Because mature erythrocytes lack DNA, only Plasmodium-derived DNA is detected. NCGC Assay Protocol Summary: The SYBR Green viability assay was adapted from a method described previously (Plouffe et al., 2008). […] The following morning, fluorescence intensity at 485(14) nm excitation and 535(25) nm emission wavelengths was measured on an EnVision (Perkin Elmer) plate reader. […]
Records with an inconclusive call do not appear. Active and inactive are the calls of the source. Calls come from the whole dose curve; as a rule, active = well fitted inhibition curve with a large enough effect; inconclusive = small, poorly fitted or top-dose-only effect; inactive = flat fitted curve, though single readings scatter.
Form entry, call: pick from active, inactive

Completed entries (count: 5):
compound	study.target	group
OCCOc1ccccc1	PAD	inactive
C#CCOC(C(=O)OCCN(C)C)(c1ccccc1)c1ccccc1	PAD	inactive
Fc1ccc(C(OCCN2CCN(CCCc3ccccc3)CC2)c2ccc(F)cc2)cc1	PAD	active
CC(CCc1ccccc1)NC(C)C(O)c1ccc(O)cc1 (stereo unspecified)	PAD	inactive
Cc1ccc(S(=O)(=O)N[C@@H](CCCCN)C(=O)CCl)cc1	PAD	active

**Query** Outcome logged for CN(C)CCc1ccc(O)cc1 in this assay:
**Result** inactive

**Query** Do the same for CCOC(=O)C1(c2ccccc2)CCN(CCC(C#N)(c2ccccc2)c2ccccc2)CC1 please
**Result** active

----------
# study.target: Calcium and integrin-binding protein 1 (Homo sapiens) (UniProt Q99828)
# Sequence (Q99828 whole entry, looked up): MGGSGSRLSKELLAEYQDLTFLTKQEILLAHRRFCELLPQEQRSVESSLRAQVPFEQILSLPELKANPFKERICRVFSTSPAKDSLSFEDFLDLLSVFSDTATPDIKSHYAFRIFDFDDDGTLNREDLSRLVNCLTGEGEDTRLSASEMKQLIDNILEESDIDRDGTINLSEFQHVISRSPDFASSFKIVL
# assay.method.text: Primary qHTS for Identification of Calcium Integrin Binding Protein 1 (CIB1) Competitor (AID 1508620)
# conditions.used: CIB1-GST / FITC-alphaIIb peptide fluorescence polarization; series mostly up to 114 µM
Results filed as inconclusive are left out. Calls of active or inactive are those of the source. The call rests on the fitted dose curve; in most records, active means well fitted inhibition curve with a large enough effect; inconclusive means small, poorly fitted or top-dose-only effect; inactive means flat fitted curve, though single readings scatter.
Form entry, call: pick from active, inactive

compound	group
O=C(NC(O)C(Cl)(Cl)Cl)NC(O)C(Cl)(Cl)Cl (stereo unspecified)	inactive
CC(C)=CCOc1c2occc2cc2ccc(=O)oc12	inactive
C[C@]12CC[C@H]3[C@@H](CCC4=CC(=O)CC[C@@H]43)[C@@H]1CC[C@@H]2OC(=O)CCc1ccccc1	inactive

**Query** Outcome logged for FC(F)(F)c1cccc(C2=CCN(CCc3ccc4ccccc4c3)CC2)c1 in this assay:
**Result** inactive

**Query** Do the same for Oc1cccc2cccnc12 please
**Result** inactive

**Query** Do the same for O=[N+]([O-])c1cc([As](=O)(O)O)ccc1O please
**Result** inactive

**Query** Do the same for COc1ccc(C(=O)c2c(C)n(CCN3CCOCC3)c3ccccc23)cc1 please
**Result** inactive

**Query** Do the same for NCC(O)c1ccc(O)cc1 (stereo unspecified) please
**Result** inactive

**Query** Do the same for N#CC(C#N)=Cc1ccc(O)c(O)c1 please
**Result** inactive

**Query** Do the same for CC[C@@H](CO)NC(=O)[C@@H]1C=C2c3cccc4c3c(cn4C)C[C@H]2N(C)C1 please
**Result** active

**Query** Do the same for C=C1CC[C@@]2(O)[C@H]3Cc4ccc(O)c5c4[C@@]2(CCN3CC2CC2)[C@H]1O5 please
**Result** inactive
